tested on: Escherichia coli; assay: Antibacterial activity against Escherichia coli at 100 ug after 24 hrs by agar disc-diffusion method; type: functional; conditions: read-out: DIZ

compound | zone of inhibition at 100 µg/disc / mm
CC1(C)S[C@@H]2[C@H](NC(=O)[C@H](N)c3ccc(O)cc3)C(=O)N2[C@H]1C(=O)O | 20
NC(=S)N1N=C(c2cc3ccccc3o2)CC1c1ccc(Cl)cc1 (stereo not given) | 15
O=C(CC(C[N+](=O)[O-])c1ccccc1)c1cc2ccccc2o1 (stereo not given) | 12
COc1ccc(C(CC(=O)c2cc3ccccc3o2)C[N+](=O)[O-])cc1 (stereo not given) | 12
Clc1ccc(C2CC(c3cc4ccccc4o3)=NN2c2nc(-c3ccccc3)cs2)cc1 (stereo not given) | 12
Clc1ccc(C2CC(c3cc4ccccc4o3)=NN2c2nc(-c3ccc(Br)cc3)cs2)cc1 (stereo not given) | 0
O=C(CC(C[N+](=O)[O-])c1ccc(Cl)cc1)c1cc2ccccc2o1 (stereo not given) | 12
NC(=S)N1N=C(c2cc3ccccc3o2)CC1c1ccccc1 (stereo not given) | 0
c1ccc(-c2csc(N3N=C(c4cc5ccccc5o4)CC3c3ccccc3)n2)cc1 (stereo not given) | 25
Brc1ccc(-c2csc(N3N=C(c4cc5ccccc5o4)CC3c3ccccc3)n2)cc1 (stereo not given) | 0

* * *

system: Aspergillus niger; assay: Antifungal activity against Aspergillus niger at 100 ug after 48 hrs by agar disc-diffusion method; assay type: functional; details: read-out: DIZ
measure: zone of inhibition at 100 µg/disc

compound | test.system | result
COc1ccc(C(CC(=O)c2cc3ccccc3o2)C[N+](=O)[O-])cc1 (stereo not given) | Aspergillus niger | 0 mm
OC(Cn1cncn1)(Cn1cncn1)c1ccc(F)cc1F | Aspergillus niger | 20 mm
NC(=S)N1N=C(c2cc3ccccc3o2)CC1c1ccccc1 (stereo not given) | Aspergillus niger | 0 mm
NC(=S)N1N=C(c2cc3ccccc3o2)CC1c1ccc(Cl)cc1 (stereo not given) | Aspergillus niger | 15 mm
Brc1ccc(-c2csc(N3N=C(c4cc5ccccc5o4)CC3c3ccccc3)n2)cc1 (stereo not given) | Aspergillus niger | 0 mm
O=C(CC(C[N+](=O)[O-])c1ccccc1)c1cc2ccccc2o1 (stereo not given) | Aspergillus niger | 0 mm
Clc1ccc(C2CC(c3cc4ccccc4o3)=NN2c2nc(-c3ccc(Br)cc3)cs2)cc1 (stereo not given) | Aspergillus niger | 0 mm
c1ccc(-c2csc(N3N=C(c4cc5ccccc5o4)CC3c3ccccc3)n2)cc1 (stereo not given) | Aspergillus niger | 0 mm
Clc1ccc(C2CC(c3cc4ccccc4o3)=NN2c2nc(-c3ccccc3)cs2)cc1 (stereo not given) | Aspergillus niger | 15 mm
O=C(CC(C[N+](=O)[O-])c1ccc(Cl)cc1)c1cc2ccccc2o1 (stereo not given) | Aspergillus niger | 15 mm
